- assay: Inhibition of aniline hydroxylase activity of mixed function oxidase system in Wistar rat liver microsomes assessed as conversion of aniline to p-aminophenol after 10 mins
- test settings: read-out: I50
Counter-ions that a name gives are not always drawn.
Kindly state pIC50 for each of the entries shown.
Conceptually, pIC50 converts a concentration in mol/L into minus its log10.

For reference, reported pIC50 for CC(=O)c1c(O)cccc1OCc1ccccc1 stands at 3.72

response.value for COc1cccc(O)c1C(C)=O (field: pIC50) = 3.70

O=Cc1ccc(O)cc1O has a reported pIC50 of 2.85

response.value for CCCC(C(=O)OCCN(CC)CC)(c1ccccc1)c1ccccc1 [PROADIFEN HYDROCHLORIDE] (field: pIC50) = 3.54

Sure, the documented pIC50 for CC(=O)c1c(O)cccc1O is 3.68

Entry CC(=O)c1ccccc1O ; pIC50 = 3.41

Summary for this compound, CC(=O)c1ccc(O)cc1O : pIC50 is 3.15

In plain terms, CCCCOCCOCCOCc1cc2c(cc1CCC)OCO2 [PIPERONYL BUTOXIDE] has a documented pIC50 of 3.38

According to the records, this compound O=Cc1c(O)cccc1O displays pIC50 of 3.70

Memo: CCC(=O)c1ccc(O)cc1O , reported pIC50: 3.12

* * *

Can you tell me IC50 for the items I'm about to list?
- assay: Inhibition of aminopyrine demethylase activity of mixed function oxidase system in Wistar rat liver microsomes assessed as conversion of aminopyrine to 4-aminoantipyrine after 20 mins
- test settings: read-out: I50
Counter-ions that a name gives are not always drawn.

According to the records, this compound CCCC(C(=O)OCCN(CC)CC)(c1ccccc1)c1ccccc1 [PROADIFEN HYDROCHLORIDE] displays IC50 of 6 µM

Data point: CCC(=O)c1ccc(O)cc1O ; IC50 = 160 µM

Kindly note the recorded IC50 for CC(=O)c1c(O)cccc1O , which is 140 µM

Per the records, this compound ( CCCCOCCOCCOCc1cc2c(cc1CCC)OCO2 [PIPERONYL BUTOXIDE] ) has IC50 equal to 420 µM

Item: O=Cc1c(O)cccc1O | IC50: 650 µM

Short answer for CC(=O)c1ccccc1O : IC50 was 320 µM

The value of IC50 measured for the compound O=Cc1ccc(O)cc1O turned out to be 1100 µM

Recorded IC50 (compound COc1cccc(O)c1C(C)=O ): 90 µM

The compound listed as CC(=O)c1ccc(O)cc1O has a reported IC50 of 520 µM

IC50 reading for CC(=O)c1c(O)cccc1OCc1ccccc1 : 80 µM

compound CCC(=O)c1ccc(OC)cc1O , IC50 observed: 170 µM

meta.source: ChEMBL document CHEMBL3271933
